Reference for the values: patent US20220403048A1

System: cynomolgus ARG2
Sequence (as listed by the source): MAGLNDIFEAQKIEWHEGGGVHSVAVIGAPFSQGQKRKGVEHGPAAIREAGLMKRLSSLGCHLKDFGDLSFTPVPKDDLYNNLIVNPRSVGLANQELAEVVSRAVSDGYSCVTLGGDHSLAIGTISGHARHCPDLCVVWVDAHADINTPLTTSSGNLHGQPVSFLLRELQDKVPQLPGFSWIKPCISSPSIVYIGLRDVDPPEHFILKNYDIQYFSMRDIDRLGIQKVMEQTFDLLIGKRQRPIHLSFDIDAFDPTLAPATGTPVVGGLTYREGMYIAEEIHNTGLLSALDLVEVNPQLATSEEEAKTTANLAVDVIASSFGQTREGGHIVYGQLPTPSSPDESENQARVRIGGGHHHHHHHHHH
Assay: Bio-Layer Interferometry (OctetRED) binding kinetics, cynomolgus ARG2
Settings: second-generation Fab; cyno ARG2 ligand; same extended assay
observable: ka (M⁻¹ s⁻¹)
Write down the numeric answer in M⁻¹ s⁻¹ and omit the unit.

## Task State its ka for this molecule: C0021180: anti-ARG2 antibody, VH SEQ ID NO: 332, VL SEQ ID NO: 337 (antibody, listed as Homo sapiens, V domains shown, C0021180) VH: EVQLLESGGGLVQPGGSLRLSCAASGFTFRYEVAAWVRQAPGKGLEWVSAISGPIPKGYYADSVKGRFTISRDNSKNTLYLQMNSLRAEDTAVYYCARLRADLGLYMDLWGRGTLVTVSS VL: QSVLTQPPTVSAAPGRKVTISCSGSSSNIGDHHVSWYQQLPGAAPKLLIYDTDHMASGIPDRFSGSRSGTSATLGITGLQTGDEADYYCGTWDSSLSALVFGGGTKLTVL
## Result 381000
